Readout: melting point

Param item = CC1(C)[C@@H](C(=O)N[C@@H](Cc2ccc(NC(=O)C3CCCCC3)cc2)C(=O)O)CC[C@@]1(C)C(=O)O ; retrieve measured melting point.
151 to 154 °C

Param item = CC1(C)[C@@H](C(=O)N[C@@H](Cc2ccc(NCc3c(Cl)cccc3Cl)cc2)C(=O)O)CC[C@@]1(C)C(=O)O ; retrieve measured melting point.
100 to 103 °C

Param item = CC(=O)Nc1ccc(C[C@H](NC(=O)[C@H]2CC[C@@](C)(C(=O)O)C2(C)C)C(=O)O)cc1 ; retrieve measured melting point.
238 to 240 °C

Param item = CC1(C)[C@@H](C(=O)N[C@@H](Cc2ccc(NC(=O)c3ccccc3C(F)(F)F)cc2)C(=O)O)CC[C@@]1(C)C(=O)O ; retrieve measured melting point.
180 to 183 °C

Param item = CC1(C)[C@@H](C(=O)N[C@@H](Cc2ccc(NC(=O)c3ccccc3I)cc2)C(=O)O)CC[C@@]1(C)C(=O)O ; retrieve measured melting point.
162 to 165 °C

Param item = CCCCCCCc1ccc(C(=O)Nc2ccc(C[C@H](NC(=O)[C@H]3CC[C@@](C)(C(=O)O)C3(C)C)C(=O)O)cc2)cc1 ; retrieve measured melting point.
212 to 214 °C

Param item = CC1(C)[C@@H](C(=O)N[C@@H](Cc2ccc(NC(=O)c3ccco3)cc2)C(=O)O)CC[C@@]1(C)C(=O)O ; retrieve measured melting point.
158 to 161 °C

###

- Target: α4β1 integrin (Jurkat T-cell adhesion to IL-1 stimulated endothelial cell monolayers) (Homo sapiens, UniProt P05556+P13612)
- Construct: a T-cell line, Jurkat, known to express the α4β1 integrin
- Sequence (P13612 34-1032): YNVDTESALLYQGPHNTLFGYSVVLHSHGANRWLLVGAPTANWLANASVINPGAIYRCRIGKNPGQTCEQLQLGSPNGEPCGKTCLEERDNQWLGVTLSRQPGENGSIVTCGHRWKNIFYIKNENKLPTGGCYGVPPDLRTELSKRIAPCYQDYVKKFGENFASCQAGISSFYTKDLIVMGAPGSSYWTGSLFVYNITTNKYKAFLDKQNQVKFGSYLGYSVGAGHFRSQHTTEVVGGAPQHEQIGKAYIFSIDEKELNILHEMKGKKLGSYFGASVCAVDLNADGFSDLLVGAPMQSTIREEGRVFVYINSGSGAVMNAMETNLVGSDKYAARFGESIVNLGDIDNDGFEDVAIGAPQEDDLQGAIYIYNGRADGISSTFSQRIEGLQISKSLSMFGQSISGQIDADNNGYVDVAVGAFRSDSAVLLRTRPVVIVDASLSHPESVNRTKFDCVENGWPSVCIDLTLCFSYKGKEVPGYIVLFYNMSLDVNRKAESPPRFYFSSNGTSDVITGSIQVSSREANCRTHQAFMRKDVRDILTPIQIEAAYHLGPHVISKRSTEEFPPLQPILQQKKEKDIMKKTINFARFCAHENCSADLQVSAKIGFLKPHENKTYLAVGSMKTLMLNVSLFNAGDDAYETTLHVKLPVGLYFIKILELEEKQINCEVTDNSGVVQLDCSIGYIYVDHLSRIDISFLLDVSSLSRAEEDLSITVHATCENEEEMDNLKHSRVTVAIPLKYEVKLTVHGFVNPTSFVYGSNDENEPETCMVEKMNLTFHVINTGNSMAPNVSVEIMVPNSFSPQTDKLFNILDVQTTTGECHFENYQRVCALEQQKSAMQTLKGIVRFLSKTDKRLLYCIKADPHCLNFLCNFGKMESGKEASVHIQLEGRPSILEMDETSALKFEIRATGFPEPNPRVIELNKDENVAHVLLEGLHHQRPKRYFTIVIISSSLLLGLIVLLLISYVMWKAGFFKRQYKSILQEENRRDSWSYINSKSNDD
- Sequence (P05556 21-798): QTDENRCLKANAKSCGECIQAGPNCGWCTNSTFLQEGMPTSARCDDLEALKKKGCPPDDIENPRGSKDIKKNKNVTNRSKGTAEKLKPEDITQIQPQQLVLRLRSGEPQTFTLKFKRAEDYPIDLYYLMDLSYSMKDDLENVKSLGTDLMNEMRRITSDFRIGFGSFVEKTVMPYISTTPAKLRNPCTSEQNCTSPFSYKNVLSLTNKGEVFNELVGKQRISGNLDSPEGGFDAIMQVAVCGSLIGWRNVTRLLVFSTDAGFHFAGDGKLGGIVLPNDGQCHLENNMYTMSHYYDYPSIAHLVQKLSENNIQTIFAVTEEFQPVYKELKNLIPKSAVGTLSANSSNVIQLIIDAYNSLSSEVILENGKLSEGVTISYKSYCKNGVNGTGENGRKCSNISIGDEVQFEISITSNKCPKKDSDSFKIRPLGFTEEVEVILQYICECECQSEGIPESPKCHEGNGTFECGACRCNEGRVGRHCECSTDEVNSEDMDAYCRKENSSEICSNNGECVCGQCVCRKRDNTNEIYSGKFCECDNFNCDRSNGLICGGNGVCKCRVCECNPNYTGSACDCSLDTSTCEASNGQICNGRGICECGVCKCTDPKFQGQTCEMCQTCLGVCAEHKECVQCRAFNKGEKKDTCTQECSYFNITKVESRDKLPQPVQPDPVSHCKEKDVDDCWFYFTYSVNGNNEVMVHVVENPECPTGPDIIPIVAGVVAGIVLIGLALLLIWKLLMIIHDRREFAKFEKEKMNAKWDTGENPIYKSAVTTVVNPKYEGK
- Experiment description: Jurkat-Endothelial Cell Adhesion Assay (Jurkat EC)
- Condition set: Jurkat cells on IL-1 stimulated HUVEC monolayers
Readout: IC50

Param item = CC1(C)[C@@H](C(=O)N[C@H](Cc2ccc(OCc3c(Cl)cccc3Cl)cn2)C(=O)O)CC[C@@]1(C)C(=O)O (relative stereo) ; retrieve measured IC50.
0.8 to 5 µM

Param item = CCCCCCCc1ccc(C(=O)Nc2ccc(C[C@H](NC(=O)[C@H]3CC[C@@](C)(C(=O)O)C3(C)C)C(=O)O)cc2)cc1 ; retrieve measured IC50.
0.8 to 5 µM

Param item = CC1(C)[C@@H](C(=O)N[C@@H](Cc2cn(Cc3ccc4ccccc4c3)cn2)C(=O)O)CC[C@@]1(C)C(=O)O ; retrieve measured IC50.
0.8 to 5 µM

Param item = CC1(C)[C@@H](C(=O)N[C@@H](Cc2ccc(NC(=O)c3ccccc3)cc2)C(=O)O)CC[C@@]1(C)C(=O)O ; retrieve measured IC50.
5 to 10 µM

Param item = CC1(C)[C@@H](C(=O)N[C@@H](Cc2ccc(NC(=O)c3c(Cl)cc(Cl)cc3Cl)cc2)C(=O)O)CC[C@@]1(C)C(=O)O ; retrieve measured IC50.
≤ 0.8 µM

Param item = CC1(C)[C@@H](C(=O)N[C@@H](Cc2ccc(OCC3CCCCC3)cc2)C(=O)O)CC[C@@]1(C)C(=O)O ; retrieve measured IC50.
5 to 10 µM

###

Readout: melting point

Param item = CC(C)(C)OC(=O)[C@]1(C)CC[C@H](C(=O)N[C@@H](Cc2cn(Cc3ccc(Cl)c(Cl)c3)cn2)C(=O)O)C1(C)C [Example 202] ; retrieve measured melting point.
234 to 235 °C

Param item = CC(C)CC(=O)Nc1ccc(C[C@H](NC(=O)[C@H]2CC[C@@](C)(C(=O)O)C2(C)C)C(=O)O)cc1 [Example 134] ; retrieve measured melting point.
146 to 148 °C

Param item = CC1(C)[C@@H](C(=O)O)CC[C@@]1(C)C(=O)N[C@H](CC(=O)O)Cc1ccc(OCc2c(Cl)cccc2Cl)cc1 (relative stereo) [Example 204] ; retrieve measured melting point.
106 to 108 °C

Param item = CC1(C)[C@@H](C(=O)N[C@@H](Cc2cn(Cc3ccc(Cl)c(Cl)c3)cn2)C(=O)O)CC[C@@]1(C)C(=O)O [Example 4] ; retrieve measured melting point.
148 to 149 °C (dec.)

Param item = CC1(C)[C@@H](C(=O)N[C@@H](Cc2ccc(NC(=O)c3ccccc3N)cc2)C(=O)O)CC[C@@]1(C)C(=O)O [Example 144] ; retrieve measured melting point.
195 to 198 °C

Param item = CC1(C)[C@@H](C(=O)N[C@@H](Cc2ccc(NC(=O)c3ccc(Cl)c(Cl)c3)cc2)C(=O)O)CC[C@@]1(C)C(=O)O [Example 114] ; retrieve measured melting point.
155 to 157 °C

Param item = CC1(C)[C@@H](C(=O)N[C@@H](Cc2ccc(NC(=O)c3ccccc3Cl)cc2)C(=O)O)CC[C@@]1(C)C(=O)O [Example 120] ; retrieve measured melting point.
143 to 145 °C

Param item = CC1(C)[C@@H](C(=O)N[C@@H](Cc2ccc(NC(=O)c3ccccn3)cc2)C(=O)O)CC[C@@]1(C)C(=O)O [Example 77] ; retrieve measured melting point.
102 to 104 °C

Param item = CC1(C)[C@@H](C(=O)N[C@@H](Cc2ccc(OCc3ccccc3)cc2)C(=O)O)CC[C@@]1(C)C(=O)O [Example 2] ; retrieve measured melting point.
146 to 149 °C

Param item = CC1(C)[C@@H](C(=O)N[C@@H](Cc2ccc(NC(=O)Cc3ccccc3)cc2)C(=O)O)CC[C@@]1(C)C(=O)O [Example 121] ; retrieve measured melting point.
240 to 242 °C

Param item = CC1(C)[C@@H](C(=O)N[C@@H](Cc2ccc(NC(=O)c3cccc([N+](=O)[O-])c3)cc2)C(=O)O)CC[C@@]1(C)C(=O)O [Example 91] ; retrieve measured melting point.
146 to 149 °C

Param item = CC1(C)[C@@H](C(=O)N[C@@H](Cc2ccc(NC(=O)C3Cc4ccccc4CN3)cc2)C(=O)O)CC[C@@]1(C)C(=O)O (stereo partly drawn) [Example 146] ; retrieve measured melting point.
208 to 211 °C

Param item = CC1(C)[C@@H](C(=O)N[C@@H](Cc2ccc(NC(=O)c3ccccc3O)cc2)C(=O)O)CC[C@@]1(C)C(=O)O [Example 143] ; retrieve measured melting point.
148 to 150 °C

Param item = COC(=O)[C@H](Cc1ccc(NC(=O)c2c(Cl)cccc2Cl)cc1)NC(=O)[C@H]1CC[C@@](C)(C(=O)NCC(N)=O)C1(C)C [Example 233] ; retrieve measured melting point.
232 to 233 °C

Param item = COc1nc(Cl)ccc1C(=O)Nc1ccc(C[C@H](NC(=O)[C@H]2CC[C@@](C)(C(=O)O)C2(C)C)C(=O)O)cc1 [Example 210] ; retrieve measured melting point.
128 to 131 °C

Param item = CC1(C)[C@@H](C(=O)N[C@@H](Cc2ccc(NC(=O)c3ccc(-c4ccccc4)cc3)cc2)C(=O)O)CC[C@@]1(C)C(=O)O [Example 116] ; retrieve measured melting point.
162 to 165 °C

Param item = CC1(C)[C@@H](C(=O)O)CC[C@]1(C)C(=O)N[C@H](Cc1ccc(NC(=O)c2c(Cl)cccc2Cl)cc1)C(=O)O [Example 246] ; retrieve measured melting point.
145 to 150 °C

Param item = CC1(C)[C@@H](C(=O)N[C@@H](Cc2ccc(NC(=O)c3c(Cl)cccc3Cl)cc2)C(=O)O)CC[C@@]1(C)C(=O)O [Example 54] ; retrieve measured melting point.
231 to 233 °C

Param item = CC1(C)[C@@H](C(=O)N[C@@H](Cc2ccc(NC(=O)c3cccc4c3Cc3ccccc3-4)cc2)C(=O)O)CC[C@@]1(C)C(=O)O [Example 136] ; retrieve measured melting point.
160 to 163 °C

Param item = CONC(=O)[C@]1(C)CC[C@H](C(=O)N[C@@H](Cc2ccc(OCc3c(Cl)cccc3Cl)cc2)C(=O)O)C1(C)C [Example 163] ; retrieve measured melting point.
70 to 72 °C

Param item = CC1(C)[C@@H](C(=O)N[C@@H](Cc2ccc(NC(=O)c3cc(Cl)ccc3Cl)cc2)C(=O)O)CC[C@@]1(C)C(=O)O [Example 87] ; retrieve measured melting point.
155 to 158 °C
